B1: TPR 5TU (parent)
chain: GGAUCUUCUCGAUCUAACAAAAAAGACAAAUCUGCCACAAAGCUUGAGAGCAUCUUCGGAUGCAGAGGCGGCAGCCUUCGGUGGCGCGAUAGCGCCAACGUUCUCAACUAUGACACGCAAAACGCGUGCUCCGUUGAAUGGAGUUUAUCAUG

# Variants of: B1
# assay-protocol: polymerase ribozyme fitness, log enrichment relative to wild type (log ratio); higher = more active; in vitro selection for triplet polymerase activity
Variants at the floor of the assay were thinned out.
Label Satisfied when polymerase ribozyme fitness (log ratio) is at or above -3; anything below gets Not satisfied.

[[record]]
mutation_list = "C10G C14U A28U U53A A122C"
label_value = "Not satisfied"

[[record]]
mutation_list = "A37C A40G C57U A73C C93U"
label_value = "Not satisfied"

[[record]]
mutation_list = "G74C G83A C95U G136A"
label_value = "Not satisfied"

[[record]]
mutation_list = "U15C A24C C93U G128U G140A U144C"
label_value = "Not satisfied"

[[record]]
mutation_list = "U56C G83A C87G C123U G141A"
label_value = "Not satisfied"

[[record]]
mutation_list = "C35A A91G C105U"
label_value = "Not satisfied"


[ask] Is the recorded value of polymerase ribozyme fitness (log ratio) equal to or greater than -3 for this variant? A37C G70C C87A C125U
[reply] Not satisfied

[ask] Answer whether polymerase ribozyme fitness (log ratio) of A22C G46A G59C A91C C99G U101G C116G A138C is greater than or equal to -3.
[reply] Not satisfied
